Esherichia coli DC0 data, read-out MIC
Number first, unit second.

As a guide, the following entries are already answered.
Query: MIC for CON=C1CN(c2c(F)cc3c(=O)c(C(=O)O)cn(C4CC4)c3c2F)CC12CNC2 [Example 3] ?
Response: 0.391 µg/mL

Query: Further, for CON=C1CN(c2nc3c(cc2F)c(=O)c(C(=O)O)cn3C2CC2)CC12CNC2.CS(=O)(=O)O [Example 1] ?
Response: 0.195 µg/mL

Further cases:
Query: MIC for CON=C1CN(c2c(F)c(N)c3c(=O)c(C(=O)O)cn(C4CC4)c3c2F)CC12CN(C)C2 [Example 11] ?
Response: 0.098 µg/mL

====

# System: Klebsiella oxytoca 1082E
Quick list: MIC per entry.

As a guide, the following entries are already answered.
Query: MIC for O=C(O)c1cn(C2CC2)c2cc(N3CCNCC3)c(F)cc2c1=O [Ciprofloxacin, ciprofloxacin, reference compound] ?
Response: < 2 ng/mL

Query: Further, for C[C@@H]1CN(c2c(F)c(N)c3c(=O)c(C(=O)O)cn(C4CC4)c3c2F)C[C@H](C)N1 [Sparfloxacin, sparfloxacin, reference compound] ?
Response: < 2 ng/mL

Attention now shifts to the item below.
Query: MIC for CON=C1CN(c2c(F)c(N)c3c(=O)c(C(=O)O)cn(C4CC4)c3c2F)CC12CN(C)C2 ?
Response: < 2 ng/mL
